tested on: store-operated Ca^2+ entry in PLP-B lymphocytes; test: Store-operated Ca2+ entry after thapsigargin depletion of ER Ca2+ stores in PLP-B lymphocytes; format: cell-based; details: Lymphocyte, 1 μM; thapsigargin (Tg) peak, PLP-B lymphocytes; % of inhibition (−) or activation; read-out: Effect on amplitude of Tg Peak
MEASURED_METRIC: inhibition at 1 µM (%)
Form entry: value (%) — number only.

Answered examples (4):
>>> readout_value("COc1ccc(CCOc2ccc(CCn3cnc4ccccc43)cc2)cc1 [6αa DAD 3-473]")
-7
>>> readout_value("COc1cccc(CCOc2ccc(CCn3cnc4ccccc43)cc2)c1 [6αad DAD 4-567]")
16.2
>>> readout_value("COc1ccccc1CCOc1ccc(CCn2cnc3ccccc32)cc1 [6αac DAD 4-566]")
1.1
>>> readout_value("CS(=O)(=O)Oc1ccc(Cn2cncn2)cc1 [8βb]")
9

query: Given the entry COc1ccc(CCCOc2ccc(CCn3cnc4ccccc43)cc2)cc1 [6αn DAD 3-474] , report its measured inhibition at 1 µM.
result: 11

query: What value of measured inhibition at 1 µM is listed for Fc1ccc2c(c1)ncn2CCc1ccc(OCCc2ccc(OC3CCCCO3)cc2)cc1 (stereo not shown) [11αc] ?
result: -4

query: Please report the recorded inhibition at 1 µM for COc1ccc(CCCOC(Cn2ccnc2)c2ccc(OC)cc2)cc1 (stereo not shown) [SKF-96365] .
result: -6.5
